Target: T1, RIG-I (ΔCARDs) (human, UniProt O95786 229-925)
T1 sequence: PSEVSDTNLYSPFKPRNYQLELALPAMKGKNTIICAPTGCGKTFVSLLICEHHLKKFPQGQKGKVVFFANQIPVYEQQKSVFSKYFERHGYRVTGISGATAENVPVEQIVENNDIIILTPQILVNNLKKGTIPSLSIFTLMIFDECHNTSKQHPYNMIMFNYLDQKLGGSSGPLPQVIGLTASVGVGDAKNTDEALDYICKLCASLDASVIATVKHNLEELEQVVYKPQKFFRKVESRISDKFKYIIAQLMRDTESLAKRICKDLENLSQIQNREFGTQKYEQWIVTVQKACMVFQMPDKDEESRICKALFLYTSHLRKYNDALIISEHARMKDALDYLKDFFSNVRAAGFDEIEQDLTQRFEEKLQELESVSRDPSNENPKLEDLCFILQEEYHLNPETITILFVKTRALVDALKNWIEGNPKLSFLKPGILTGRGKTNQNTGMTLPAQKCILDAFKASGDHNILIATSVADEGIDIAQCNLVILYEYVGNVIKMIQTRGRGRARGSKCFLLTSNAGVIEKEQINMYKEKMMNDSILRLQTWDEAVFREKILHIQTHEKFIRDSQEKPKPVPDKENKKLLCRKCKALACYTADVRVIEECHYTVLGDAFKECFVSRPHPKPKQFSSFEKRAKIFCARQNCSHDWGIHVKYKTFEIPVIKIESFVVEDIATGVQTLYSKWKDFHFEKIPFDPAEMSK
Assay: competition
endpoint_name: Ki (nM)
State the answer as a number, implicitly in nM.

Entry 5'-OH 14 dsRNA, unlabeled competitor (dsRNA, 5'-OH) RNA 1: ACCUCCCACCCCCG RNA 2: CGGGGGUGGGAGGU , Ki reported as 13
